Each entry below carries its reported drug sensitivity score.
tested on: CAL-85-1; experiment: drug sensitivity score (DSS), CellTiter-Blue viability (DSS (AUC-based score)); higher = stronger viability inhibition; extreme values may be limits of the assay; conditions: incubation time: 72 h

molecule	drug sensitivity score
CC1=C(/C=C/C(C)=C/C=C/C(C)=C/C(=O)O)C(C)(C)CCC1	0
COc1cc2c(Oc3ccc4[nH]c(C)cc4c3F)ncnc2cc1OCCCN1CCCC1	0
CC[C@@H]1C(=O)N(C)c2cnc(Nc3ccc(C(=O)NC4CCN(C)CC4)cc3OC)nc2N1C1CCCC1	14.7
N#Cc1ccc(C(c2ccc(C#N)cc2)n2cncn2)cc1	0
CCCS(=O)(=O)Nc1ccc(F)c(C(=O)c2c[nH]c3ncc(-c4ccc(Cl)cc4)cc23)c1F	2.25
O=C(O)C(=O)O.[NH-][C@@H]1CCCC[C@H]1[NH-].[Pt+2]	0
C=CC(=O)Nc1cc2c(Nc3ccc(F)c(Cl)c3)ncnc2cc1OCCCN1CCOCC1	11.9
CC[C@H](Nc1ncnc2[nH]cnc12)c1nc2cccc(F)c2c(=O)n1-c1ccccc1	0
COc1cc([C@@H]2c3cc4c(cc3[C@@H](O[C@@H]3O[C@@H]5CO[C@@H](c6cccs6)O[C@H]5[C@H](O)[C@H]3O)[C@H]3COC(=O)[C@H]23)OCO4)cc(OC)c1O [Teniposide]	8.14

* * *

tested on: CAL-148; experiment: normalised viability (% of control), CellTiter-Blue; higher = more viable cells (about 100 = DMSO control); settings: 300 nM; incubation time: 72 h

sample_smiles	normalised viability [%]
O=C(O)C(=O)O.[NH-][C@@H]1CCCC[C@H]1[NH-].[Pt+2]	121
C[C@H]1C[C@@H]2[C@H]([C@@H](O)C[C@@]3(C)[C@H]2CC[C@]3(O)C(=O)CO)[C@@]2(C)C=CC(=O)C=C12	104
CCCS(=O)(=O)Nc1ccc(F)c(C(=O)c2c[nH]c3ncc(-c4ccc(Cl)cc4)cc23)c1F	90.3
C1CN1c1nc(N2CC2)nc(N2CC2)n1	118
Cc1ccc(-c2cc(C(F)(F)F)nn2-c2ccc(S(N)(=O)=O)cc2)cc1	88

* * *

system: Hs578T; test: normalised viability (% of control), CellTiter-Blue; higher = more viable cells (about 100 = DMSO control); conditions: 10000 nM; incubation time: 72 h
Each entry below carries its reported normalised viability.
recorded_metric: normalised viability (%)

compound	reported_value
CC1=C(/C=C/C(C)=C/C=C/C(C)=C/C(=O)O)C(C)(C)CCC1 [Tretinoin]	100
O=C(O)C1(C(=O)O)CCC1.[NH2-].[NH2-].[Pt+2] [Carboplatin]	109
O=C(O)C(=O)O.[NH-][C@@H]1CCCC[C@H]1[NH-].[Pt+2] [Oxaliplatin]	66.9
CCN(CC)CCCC(C)Nc1c2ccc(Cl)cc2nc2ccc(OC)cc12 (centres undefined) [Mepacrine]	21.6

* * *

test system: MDA-MB-468; test: drug sensitivity score (DSS), CellTox Green (DSS (AUC-based score)); higher = stronger drug effect (viability inhibition or cytotoxicity); extreme values may be limits of the assay; conditions: incubation time: 72 h

sample_smiles	drug sensitivity score
COc1cc2nccc(Oc3ccc(NC(=O)Nc4cc(C)on4)c(Cl)c3)c2cc1OC	0
CCCS(=O)(=O)Nc1ccc(F)c(C(=O)c2c[nH]c3ncc(-c4ccc(Cl)cc4)cc23)c1F	0
Nc1nc2[nH]cc(CCc3ccc(C(=O)N[C@@H](CCC(=O)O)C(=O)O)cc3)c2c(=O)[nH]1	1.29
O=C(/C=C/c1cccnc1)NCCCCC1CCN(C(=O)c2ccccc2)CC1	0.89
O=C(Cc1ccc(-c2ccc(OCCN3CCOCC3)cc2)cn1)NCc1ccccc1	30.1
Cc1ccc(-c2cc(C(F)(F)F)nn2-c2ccc(S(N)(=O)=O)cc2)cc1	0

* * *

system: MCF-10A; test: normalised response (% of control), CellTox Green; higher = less cell death (100 = DMSO, 0 = benzethonium chloride kill control); conditions: incubation time: 72 h

compound	normalised response
Cc1ccc(-c2cc(C(F)(F)F)nn2-c2ccc(S(N)(=O)=O)cc2)cc1 [Celecoxib] (1000 nM)	81.4%
COc1cc2c(NC3CCN(C(C)C)CC3)nc(C3CCCCC3)nc2cc1OCCCN1CCCC1 [UNC0638] (100 nM)	98.3%
O=C(O)C1(C(=O)O)CCC1.[NH2-].[NH2-].[Pt+2] [Carboplatin] (100 nM)	86.2%
Nc1nc2[nH]cc(CCc3ccc(C(=O)N[C@@H](CCC(=O)O)C(=O)O)cc3)c2c(=O)[nH]1 [Pemetrexed] (10000 nM)	72%

* * *

Each entry below carries its reported normalised viability.
system: MFM-223; experiment: normalised viability (% of control), CellTiter-Blue; higher = more viable cells (about 100 = DMSO control); details: 10 nM; incubation time: 72 h

compound	normalised viability, %
CCCCC(=O)OCC(=O)[C@]1(O)Cc2c(O)c3c(c(O)c2[C@@H](O[C@H]2C[C@H](NC(=O)C(F)(F)F)[C@H](O)[C@H](C)O2)C1)C(=O)c1c(OC)cccc1C3=O [Valrubicin]	92.1
O=C(Cc1ccc(-c2ccc(OCCN3CCOCC3)cc2)cn1)NCc1ccccc1 [KX2-391]	91.2
Nc1ccccc1NC(=O)c1ccc(CNC(=O)OCc2cccnc2)cc1 [Entinostat]	110
C1CN1c1nc(N2CC2)nc(N2CC2)n1 [Triethylenemelamine]	99.4
Cc1ccc(-c2cc(C(F)(F)F)nn2-c2ccc(S(N)(=O)=O)cc2)cc1 [Celecoxib]	95.9

* * *

test system: MDA-MB-453; assay: normalised viability (% of control), CellTiter-Blue; higher = more viable cells (about 100 = DMSO control); conditions: 10000 nM; incubation time: 72 h
// NB: equality with 90% counts as Not fulfilled; only normalised viability strictly below is Fulfilled

molecule	cat
Nc1nc(F)nc2c1ncn2[C@@H]1O[C@H](CO)[C@@H](O)[C@@H]1O [Fludarabine]	Not fulfilled
C1CN1c1nc(N2CC2)nc(N2CC2)n1 [Triethylenemelamine]	Fulfilled
NCCCNCCSP(=O)(O)O [Amifostine]	Fulfilled
C[C@H]1C[C@@H]2[C@H]([C@@H](O)C[C@@]3(C)[C@H]2CC[C@]3(O)C(=O)CO)[C@@]2(C)C=CC(=O)C=C12 [Methylprednisolone]	Fulfilled
Oc1ncc(N(CCCl)CCCl)c(O)n1 [Uracil mustard]	Not fulfilled

* * *

system: DU-4475; experiment: normalised viability (% of control), CellTiter-Blue; higher = more viable cells (about 100 = DMSO control); settings: 100 nM; incubation time: 72 h

compound	target_or_system	normalised viability [%]
NCCCNCCSP(=O)(O)O [Amifostine]	DU-4475	86.4
CC[C@H](Nc1ncnc2[nH]cnc12)c1nc2cccc(F)c2c(=O)n1-c1ccccc1 [CAL-101]	DU-4475	86.2
Oc1ncc(N(CCCl)CCCl)c(O)n1 [Uracil mustard]	DU-4475	101
CCCS(=O)(=O)Nc1ccc(F)c(C(=O)c2c[nH]c3ncc(-c4ccc(Cl)cc4)cc23)c1F [Vemurafenib]	DU-4475	68.2
Nc1nc2[nH]cc(CCc3ccc(C(=O)N[C@@H](CCC(=O)O)C(=O)O)cc3)c2c(=O)[nH]1 [Pemetrexed]	DU-4475	108

* * *

system: DU-4475; assay: normalised viability (% of control), CellTiter-Blue; higher = more viable cells (about 100 = DMSO control); conditions: 30 nM; incubation time: 72 h

molecule	target_or_system	normalised viability
Nc1nc2[nH]cc(CCc3ccc(C(=O)N[C@@H](CCC(=O)O)C(=O)O)cc3)c2c(=O)[nH]1 [Pemetrexed]	DU-4475	117%
CCN(CC)CCCC(C)Nc1c2ccc(Cl)cc2nc2ccc(OC)cc12 (stereo unspecified) [Mepacrine]	DU-4475	89.1%
CCCCC(=O)OCC(=O)[C@]1(O)Cc2c(O)c3c(c(O)c2[C@@H](O[C@H]2C[C@H](NC(=O)C(F)(F)F)[C@H](O)[C@H](C)O2)C1)C(=O)c1c(OC)cccc1C3=O [Valrubicin]	DU-4475	55.4%
CC[C@H](Nc1ncnc2[nH]cnc12)c1nc2cccc(F)c2c(=O)n1-c1ccccc1 [CAL-101]	DU-4475	83.2%
COc1cc2nccc(Oc3ccc(NC(=O)Nc4cc(C)on4)c(Cl)c3)c2cc1OC [Tivozanib]	DU-4475	101%
O=C(Cc1ccc(-c2ccc(OCCN3CCOCC3)cc2)cn1)NCc1ccccc1 [KX2-391]	DU-4475	80.5%

* * *

system: MDA-MB-453; assay: normalised viability (% of control), CellTiter-Blue; higher = more viable cells (about 100 = DMSO control); settings: 3 nM; incubation time: 72 h
Each entry below carries its reported normalised viability.

compound	target_or_system	value_units	normalised viability
Nc1nc(F)nc2c1ncn2[C@@H]1O[C@H](CO)[C@@H](O)[C@@H]1O [Fludarabine]	MDA-MB-453	%	113
Nc1nc2[nH]cc(CCc3ccc(C(=O)N[C@@H](CCC(=O)O)C(=O)O)cc3)c2c(=O)[nH]1 [Pemetrexed]	MDA-MB-453	%	128
COc1cc2c(Oc3ccc4[nH]c(C)cc4c3F)ncnc2cc1OCCCN1CCCC1 [Cediranib]	MDA-MB-453	%	97
Oc1ncc(N(CCCl)CCCl)c(O)n1 [Uracil mustard]	MDA-MB-453	%	103
Cc1cnc(NC(=O)Nc2cc(Br)c(C)cc2OC[C@@H]2CNCCO2)cn1	MDA-MB-453	%	111
CCCS(=O)(=O)Nc1ccc(F)c(C(=O)c2c[nH]c3ncc(-c4ccc(Cl)cc4)cc23)c1F [Vemurafenib]	MDA-MB-453	%	96.5
